target: human P2X7 (Homo sapiens, UniProt Q99572); construct: expressed in transfected cells; assay: YO-PRO-1 dye uptake assay in HEK-hP2X7 cells; type: cell-based; conditions: maximum response defined at 1 mM ATP; 10 µM glycoside
Sequence (Q99572 whole entry): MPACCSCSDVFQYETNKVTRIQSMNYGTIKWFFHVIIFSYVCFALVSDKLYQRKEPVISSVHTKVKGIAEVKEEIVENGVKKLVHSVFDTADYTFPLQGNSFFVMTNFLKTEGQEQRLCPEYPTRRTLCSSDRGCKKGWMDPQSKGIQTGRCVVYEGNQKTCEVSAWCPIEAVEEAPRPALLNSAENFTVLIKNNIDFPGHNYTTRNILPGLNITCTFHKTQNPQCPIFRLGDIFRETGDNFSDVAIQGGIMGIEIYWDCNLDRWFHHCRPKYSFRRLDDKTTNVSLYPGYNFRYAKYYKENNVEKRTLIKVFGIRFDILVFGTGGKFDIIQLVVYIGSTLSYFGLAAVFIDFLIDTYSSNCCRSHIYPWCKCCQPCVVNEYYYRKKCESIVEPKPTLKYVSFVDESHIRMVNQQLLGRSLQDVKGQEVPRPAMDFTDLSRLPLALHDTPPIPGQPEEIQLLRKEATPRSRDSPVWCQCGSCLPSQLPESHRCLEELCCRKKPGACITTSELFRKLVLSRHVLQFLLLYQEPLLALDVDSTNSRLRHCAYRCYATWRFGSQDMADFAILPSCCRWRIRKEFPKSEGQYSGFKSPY
PARAMETER MEASURED: Maximum response (fold increase) (fold)
Give bare numbers, in fold.

>>> reading("CC(C)=CCC[C@](C)(O[C@@H]1O[C@H](CO[C@@H]2OC[C@@H](O)[C@H](O)[C@H]2O)[C@@H](O)[C@H](O)[C@H]1O)[C@H]1CC[C@]2(C)[C@@H]1[C@H](O)C[C@@H]1[C@@]3(C)CC[C@H](O[C@@H]4O[C@H](CO)[C@@H](O)[C@H](O)[C@H]4O)C(C)(C)[C@@H]3CC[C@]12C [Stevenleaf (gypenoside IX), stevenleaf]")
1.64
>>> reading("CC(C)=CCC[C@](C)(O[C@@H]1O[C@H](CO)[C@@H](O)[C@H](O)[C@H]1O)[C@H]1CC[C@]2(C)[C@@H]1[C@H](O)C[C@@H]1[C@@]3(C)CC[C@H](O[C@@H]4O[C@H](CO)[C@@H](O)[C@H](O)[C@H]4O)C(C)(C)[C@@H]3CC[C@]12C [Ginsenoside-F2, ginsenoside-F2]")
2.23
>>> reading("CC(C)=CCC[C@](C)(O[C@@H]1O[C@H](CO[C@@H]2O[C@H](CO)[C@@H](O)[C@H](O)[C@H]2O)[C@@H](O)[C@H](O)[C@H]1O)[C@H]1CC[C@]2(C)[C@@H]1[C@H](O)C[C@@H]1[C@@]3(C)CC[C@H](O[C@@H]4O[C@H](CO)[C@@H](O)[C@H](O)[C@H]4O)C(C)(C)[C@@H]3CC[C@]12C [Gypenoside XVII, gypenoside XVII]")
2.0

Now look at this one.
Item CC(C)=CCC[C@](C)(O[C@@H]1O[C@H](CO)[C@@H](O)[C@H](O)[C@H]1O)[C@H]1CC[C@]2(C)[C@@H]1[C@H](O)C[C@@H]1[C@@]3(C)CC[C@H](O)C(C)(C)[C@@H]3[C@@H](O)C[C@]12C [Ginsenoside-F1, ginsenoside-F1] was tested on human P2X7 (Homo sapiens, UniProt Q99572); the reported Maximum response (fold increase) is 1.46
